- assayed system: His6 tagged human recombinant FABP4 (Homo sapiens, UniProt P15090)
- Construct: purchased Cayman Chemicals 10009549
- Sequence (P15090 whole entry): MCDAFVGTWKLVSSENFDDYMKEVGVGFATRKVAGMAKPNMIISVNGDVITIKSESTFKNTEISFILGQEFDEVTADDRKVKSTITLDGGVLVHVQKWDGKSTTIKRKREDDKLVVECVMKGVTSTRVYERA
- assay text: FABP4 TR-FRET assay: displacement of fluorescent fatty acid BODIPY FL C12
- experimental conditions: inhibition of BODIPY FL C12 binding to His6-FABP4; 1.2 μL of 1.085 mM compound in DMSO per well; triplicates, mean percent inhibition
// map inhibition at 1085 µM (stock) onto a label; ranges I: < 40%; II: ≥ 40% and < 70%; III: ≥ 70%

| compound | answer label |
| --- | --- |
| CN(CC(=O)O)c1cc(-c2ccccc2)c2cc(CCN3CCC(O)CC3)ccc2n1 | I |
| CCCCc1ccc2nc(N(C)CC(=O)O)cc(-c3cccc(C#N)c3)c2c1 | I |
| CCCCc1ccc2nc(OCC(=O)O)cc(-c3ccccc3)c2c1 | I |

Enquiry: Categorize the following entry: `CCCCCCCCc1ccc2nc(N(C)CC(=O)O)cc(Oc3cccc(F)c3)c2c1`
Return: III

Enquiry: Tag the class for `CCCCCCc1ccc2nc(N(c3nnn[nH]3)C3CC3)cc(-c3ccccc3)c2c1`
Return: III

Enquiry: Hi there! Could you help me figure out the category for `CCCCCCc1ccc2nc(N(CC(=O)O)CC(C)C)cc(-c3ccc(F)cc3)c2c1` please?
Return: III

Enquiry: Which category fits this record: `CCCCCCc1ccc2nc(N(C)CC(=O)O)cc(-c3ccc(F)cc3)c2c1`
Return: III

Enquiry: Class? Entry: `CCCCCCc1ccc2nc(N(C)CC(=O)O)c(C)c(N3CCOCC3)c2c1`
Return: III

Enquiry: Bin? `CN(CC(=O)O)c1cc(-c2ccccc2)c2cc(CCc3cccc(Cl)c3)ccc2n1`
Return: II

Enquiry: Would you mind sorting `CCCCCc1ccc2nc(N(C)CC(=O)O)cc(-c3ccc(F)cc3)c2c1` into the appropriate category?
Return: III

----------
- assayed system: His6 tagged human recombinant FABP4 (Homo sapiens)
- Construct: purchased Cayman Chemicals 10009549
- assay text: FABP4 TR-FRET assay: displacement of fluorescent fatty acid BODIPY FL C12
- experimental conditions: inhibition of BODIPY FL C12 binding to His6-FABP4; 1.2 μL of 1.085 mM compound in DMSO per well; triplicates, mean percent inhibition
Recorded measurements of inhibition at 1085 µM (stock), one per entry
Report the figure in % without appending any unit label.

| molecule | numeric readout |
| --- | --- |
| CCCCCCc1ccc2nc(N3CC(C(=O)O)CC3=O)cc(-c3ccccc3)c2c1 (centres unmarked) | 6.12 |

Enquiry: API: value(readout= inhibition at 1085 µM (stock), system= His6 tagged human recombinant FABP4 (Homo sapiens), query= `CN(CC(=O)O)c1cc(-c2ccccc2)c2cc(CCc3nc4ccccc4n3C)ccc2n1` )
Return: 30.3

Enquiry: Look up inhibition at 1085 µM (stock) with His6 tagged human recombinant FABP4 (Homo sapiens) for this molecule: `CN(CC(=O)O)c1cc(-c2ccccc2)c2cc(CCc3cnccn3)ccc2n1`
Return: 4.98

Enquiry: # value lookup — system His6 tagged human recombinant FABP4 (Homo sapiens), readout inhibition at 1085 µM (stock), item `CCc1ccc2nc(OCC(=O)O)cc(-c3cccc(C(N)=O)c3)c2c1`
Return: 30.4
